# CONDITION DESCRIPTION: in n-octanol, 311.75 K
ATTRIBUTE MEASURED: solubility (mole fraction)
Reply with the value as a number alone.

Identify the reported solubility (mole fraction) for the following entry. O=C(O)c1ccccc1[N+](=O)[O-]
0.122

---

# CONDITION DESCRIPTION: in n-octanol, 314.85 K
ATTRIBUTE MEASURED: solubility (mole fraction)

Indicate the recorded solubility (mole fraction) value for this compound: O=C(O)c1ccccc1[N+](=O)[O-]
0.135

---

Entries and their solubility (mole fraction) values follow.
# CONDITION DESCRIPTION: in n-octanol, 299.65 K
Give the figure only, with no unit attached.

>>> measured_number("Cc1ccccc1C(=O)O")
0.165

// next item, solubility (mole fraction) requested
Return the recorded solubility (mole fraction) value; entry: O=C(O)c1ccccc1[N+](=O)[O-]
0.0806
